Source listed as the supplement of paper PMC11208160.

Reported recombinant UMI read abundance (log10) values are given for each entry in this list.
Test protocol: recombinant UMI read abundance after kanamycin selection (control-corrected) (log10(CPM+1)); higher = more efficient recombination; extreme values may be limits of the assay; sequences stand for … in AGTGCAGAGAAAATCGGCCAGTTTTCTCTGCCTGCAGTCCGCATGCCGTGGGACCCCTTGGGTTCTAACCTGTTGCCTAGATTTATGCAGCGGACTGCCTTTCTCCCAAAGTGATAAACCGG…AGGTTGGTTTCACT; site = the 11-nt donor
Readout label: recombinant UMI read abundance (log10)

| Sequence | Readout label | Reported |
| --- | --- | --- |
| ACCTCCGCATGGACCGGTTTTCCCGGTAATCCGTATTTGAG (site ACCTCCGCTCT) | recombinant UMI read abundance (log10) | 0.147 |
| GCCACGCCATGGACCGGTTTTCCCGGTAATCCGTATTTGTC (site GCCACGCCTCA) | recombinant UMI read abundance (log10) | 0.015 |
| TAGAGTCCATGGACCGGTTTTCCCGGTAATCCGTATTTGTA (site TAGAGTCCTTA) | recombinant UMI read abundance (log10) | 1.37 |
| ACATTACCATGGACCGGTTTTCCCGGTAATCCGTATTTGCA (site ACAGTATCTTG) | recombinant UMI read abundance (log10) | 1.21 |
| CAGCTCGCATGGACCGGTTTTCCCGGTAATCCGTATTTGAC (site CAGCTCGCTGT) | recombinant UMI read abundance (log10) | 2.55 |
| CAAATCCCATGGACCGGTTTTCCCGGTAATCCGTATTTGCT (site CAAGTCCCTAG) | recombinant UMI read abundance (log10) | 0 |
| CCCGTCTCATGGACCGGTTTTCCCGGTAATCCGTATTTGGG (site CCCTTCTCTCC) | recombinant UMI read abundance (log10) | 0.018 |
| TCAACCCCATGGACCGGTTTTCCCGGTAATCCGTATTTGTG (site TCAACCCCTCA) | recombinant UMI read abundance (log10) | 0.00442 |
| AATTTGTCATGGACCGGTTTTCCCGGTAATCCGTATTTGAC (site AATCTGTCTGT) | recombinant UMI read abundance (log10) | 0 |
| GGACAGCCATGGACCGGTTTTCCCGGTAATCCGTATTTGCA (site GGACAGCCTTG) | recombinant UMI read abundance (log10) | 1.07 |
| GGATACACATGGACCGGTTTTCCCGGTAATCCGTATTTGCC (site GGATAGACTGG) | recombinant UMI read abundance (log10) | 0 |
| TCCAATTCATGGACCGGTTTTCCCGGTAATCCGTATTTGCA (site TCCAATTCTAG) | recombinant UMI read abundance (log10) | 0 |
| GTAGTCGCATGGACCGGTTTTCCCGGTAATCCGTATTTGTG (site GTAGTCGCTCA) | recombinant UMI read abundance (log10) | 2.18 |
| ACTCAATCATGGACCGGTTTTCCCGGTAATCCGTATTTGAG (site ACTCAATCTCT) | recombinant UMI read abundance (log10) | 1.69 |
| ACCTACACATGGACCGGTTTTCCCGGTAATCCGTATTTGGG (site ACCTAAACTCC) | recombinant UMI read abundance (log10) | 0.00329 |
| ATCTGCTCATGGACCGGTTTTCCCGGTAATCCGTATTTGGA (site ATCTGCTCTTC) | recombinant UMI read abundance (log10) | 1.49 |
| ATCTACCCATGGACCGGTTTTCCCGGTAATCCGTATTTGGC (site ATCTACCCTGC) | recombinant UMI read abundance (log10) | 0.584 |
| CCAGGTCCATGGACCGGTTTTCCCGGTAATCCGTATTTGCA (site CCGGGTCCTTG) | recombinant UMI read abundance (log10) | 0 |

* * *

Test protocol: recombinant barcode read abundance after kanamycin selection (control-corrected) (log10(CPM+1)); higher = more efficient recombination; sequences stand for … in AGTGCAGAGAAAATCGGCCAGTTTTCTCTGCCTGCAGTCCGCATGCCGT…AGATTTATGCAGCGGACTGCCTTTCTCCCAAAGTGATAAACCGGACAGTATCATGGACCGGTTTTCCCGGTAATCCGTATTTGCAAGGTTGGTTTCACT; site = the 11-nt target
Reported recombinant barcode read abundance (log10) values are given for each entry in this list.
Readout label: recombinant barcode read abundance (log10)

| Sequence | Reported |
| --- | --- |
| ACTACCTCTTGGGTTCTAACCTGTTGCCT (site ATTACCTCTAG) | 0.0805 |
| TACCCTACTTGGGTTCTAACCTGTTGCCT (site TACCCTACTAG) | 0.628 |
| TGGCGTACTTGGGTTCTAACCTGTTGCCT (site TGGAGTACTAG) | 0 |
| CTAGTCCCTTGGGTTCTAACCTGTTGCCG (site CTAGTCCCTCG) | 1.79 |
| GACTACCCTTGGGTTCTAACCTGTTGCCT (site ATGCTGTCTTA) | 0.0344 |

* * *

Test protocol: recombinant barcode read abundance after kanamycin selection (control-corrected) (log10(CPM+1)); higher = more efficient recombination; sequences stand for … in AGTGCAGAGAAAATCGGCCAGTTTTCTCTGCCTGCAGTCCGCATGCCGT…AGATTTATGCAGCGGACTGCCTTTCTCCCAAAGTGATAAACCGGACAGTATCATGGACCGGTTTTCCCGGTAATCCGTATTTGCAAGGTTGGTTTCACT; site = the 11-nt target
Readout label: recombinant barcode read abundance (log10)

| Sequence | Reported |
| --- | --- |
| GACATCTCTTGGGTTCTAACCTGTTGCCT (site GACATCCCTAG) | 0.00568 |
| TACAAGGCTTGGGTTCTAACCTGTTGCGG (site TACAAGTCTCC) | 0.292 |
| CGTCTGACTTGGGTTCTAACCTGTTGCCA (site CGTCTGACTTG) | 0.241 |
| GGTTACCCTTGGGTTCTAACCTGTTGCGG (site GGTAACCCTCC) | 0.716 |
| GACCGAGCTTGGGTTCTAACCTGTTGCCT (site GACCGGGCTAG) | 0.145 |

* * *

Test protocol: recombinant UMI read abundance after kanamycin selection (control-corrected) (log10(CPM+1)); higher = more efficient recombination; extreme values may be limits of the assay; sequences stand for … in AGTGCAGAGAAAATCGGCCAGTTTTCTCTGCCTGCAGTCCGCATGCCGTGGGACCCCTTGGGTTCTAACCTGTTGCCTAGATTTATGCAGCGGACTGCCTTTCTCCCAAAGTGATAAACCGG…AGGTTGGTTTCACT; site = the 11-nt donor
Each entry belongs to exactly one class, chosen by where its recombinant UMI read abundance (log10) falls: lowest (below 0.006), middle (0.006 to below 0.9), highest (0.9 or more)

| Sequence | Label value |
| --- | --- |
| CAATCGACATGGACCGGTTTTCCCGGTAATCCGTATTTGTT (site CCATCGACTAA) | middle |
| GTCACGACATGGACCGGTTTTCCCGGTAATCCGTATTTGAT (site GTCACGACTAT) | highest |
| ATTGAGACATGGACCGGTTTTCCCGGTAATCCGTATTTGTT (site ATTGAGACTAG) | highest |
| TTTCTGTCATGGACCGGTTTTCCCGGTAATCCGTATTTGTA (site TTTCTGTCTTA) | lowest |
| GACCCGTCATGGACCGGTTTTCCCGGTAATCCGTATTTGTG (site GACCCGTCTCA) | highest |
| AGCCTAGCATGGACCGGTTTTCCCGGTAATCCGTATTTGCT (site AGCCTAGCTAT) | lowest |
| GATCCAACATGGACCGGTTTTCCCGGTAATCCGTATTTGTA (site GTTCCAACTTA) | middle |
| ACACGAACATGGACCGGTTTTCCCGGTAATCCGTATTTGTG (site ACACGAACTGA) | lowest |
| TTAATATCATGGACCGGTTTTCCCGGTAATCCGTATTTGAC (site TTAATATCTGT) | highest |
| CGATTCCCATGGACCGGTTTTCCCGGTAATCCGTATTTGCT (site CCATTCCCTAG) | highest |
| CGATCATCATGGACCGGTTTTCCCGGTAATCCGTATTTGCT (site CGATCACCTAT) | middle |
| GCGTAAACATGGACCGGTTTTCCCGGTAATCCGTATTTGCT (site GCGAAAACTAG) | lowest |
| AGGAAGACATGGACCGGTTTTCCCGGTAATCCGTATTTGCT (site AGGAAGACTCG) | middle |
| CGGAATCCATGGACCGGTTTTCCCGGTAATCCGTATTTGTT (site CGGTATCCTAA) | middle |
| TGCTTAGCATGGACCGGTTTTCCCGGTAATCCGTATTTGTC (site TGCTTAGCTGA) | lowest |
| AATGGGTCATGGACCGGTTTTCCCGGTAATCCGTATTTGAC (site AATGCGTCTGT) | middle |
| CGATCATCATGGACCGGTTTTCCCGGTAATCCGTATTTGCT (site CGATCCTCTCG) | lowest |
